Data origin: the RNAGym collection of RNA variant scans (doi:10.1126/science.aae0568)

B1: tRNA (parent)
chain: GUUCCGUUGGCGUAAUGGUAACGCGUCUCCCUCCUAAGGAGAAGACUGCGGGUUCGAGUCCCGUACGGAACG

# Variants of: B1
# Assay method text: yeast fitness relative to wild type (ratio to wild type); higher = fitter; tRNA-Arg(CCU), competitive growth, 37 C, YPD
Variants at the floor of the assay were thinned out.
Endpoint name: yeast fitness
Format: numeric value only, no unit, no commentary.

Query: yeast fitness; subject: GUUCCGUUGGCGUAAUGGUCACGCGUUUCCCUCCUAAGGCGAAGACUGCGGGUUCGAGUCCCGUACGGAACG 0.63

Query: yeast fitness; subject: GGUCCGUUGGCGUAAUGGUAACGCGUCUCCCUCUUAAGGAGAAGACUGCGGGUUCGAGUCCCGUACGGUACG 0.543

Query: yeast fitness; subject: GUUCCGUUGGCGUAAUGGUAACGCGUCUCCCUCCUAAGGAGAUGACUGCGGGUUCGAGUCCCGUACUGAACG 0.87

Query: yeast fitness; subject: GUUCCGUUGGAGUAAUGGUAACGCGUCUCGCUCGUAAGGAGAAGACUGCGGGUUCGAGUCCCGUACGGAACG 0.579

Query: yeast fitness; subject: GUUCCGUUGGCGUAAUGGUAACGCGUCUCCCUCCUAAGGAGAAGACUGCGGGUUCAAGCCCCGUACGGAACG 1.05

Query: yeast fitness; subject: GUUCCGUUGGCGUAAUGGUAACGUAUCUCUCUCCUAAGGAGAAGAAUGCGGGUUCGAGUCCCGUUCGGAACG 0.562
